- Test system: LXRa:RXRa (NR concentration 270 nM, RXRa partner concentration 90 nM)
- test: PBM binding z-score (relative to random genomic background probes); higher = stronger binding; sequences stand for … in GC…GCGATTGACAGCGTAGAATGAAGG
Quick rule: PBM binding z-score of at least 0.3 means MET, below that means NOT MET.

Solved cases (5 shown):
item-sequence: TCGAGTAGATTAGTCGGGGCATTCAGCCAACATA
label-class: NOT MET
--
item-sequence: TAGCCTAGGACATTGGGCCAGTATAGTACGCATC
label-class: NOT MET
--
item-sequence: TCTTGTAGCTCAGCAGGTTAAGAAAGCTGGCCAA
label-class: NOT MET
--
item-sequence: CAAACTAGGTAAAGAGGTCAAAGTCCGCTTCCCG
label-class: MET
--
item-sequence: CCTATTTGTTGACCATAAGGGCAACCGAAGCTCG
label-class: MET

Say whether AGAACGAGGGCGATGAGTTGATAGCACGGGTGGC shows PBM binding z-score of 0.3 or more. NOT MET

Say whether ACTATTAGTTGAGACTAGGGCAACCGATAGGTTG shows PBM binding z-score of 0.3 or more. NOT MET

Say whether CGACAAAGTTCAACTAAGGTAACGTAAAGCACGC shows PBM binding z-score of 0.3 or more. MET

Say whether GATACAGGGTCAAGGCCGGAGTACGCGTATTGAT shows PBM binding z-score of 0.3 or more. MET

Say whether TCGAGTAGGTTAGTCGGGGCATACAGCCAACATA shows PBM binding z-score of 0.3 or more. NOT MET

Say whether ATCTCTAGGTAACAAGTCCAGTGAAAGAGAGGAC shows PBM binding z-score of 0.3 or more. NOT MET

* * *

- System: RARg:RXRa (NR concentration 270 nM, RXRa partner concentration 90 nM)
- test: PBM binding z-score (relative to random genomic background probes); higher = stronger binding; sequences stand for … in GC…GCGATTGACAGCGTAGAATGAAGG
reported-property: PBM binding z-score
Just the number.

In the examples that follow, each entry is paired with its recorded PBM binding z-score.
item-sequence: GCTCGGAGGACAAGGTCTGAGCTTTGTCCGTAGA
reported-value: -0.104
//
item-sequence: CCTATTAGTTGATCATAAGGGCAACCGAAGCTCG
reported-value: 0.898
//
item-sequence: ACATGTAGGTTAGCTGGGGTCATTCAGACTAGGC
reported-value: 4.24
//
item-sequence: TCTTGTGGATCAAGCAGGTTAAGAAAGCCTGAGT
reported-value: -0.132
//
item-sequence: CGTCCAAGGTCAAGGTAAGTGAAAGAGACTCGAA
reported-value: 6.03
//
item-sequence: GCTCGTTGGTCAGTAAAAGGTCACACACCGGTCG
reported-value: 5.69
//
item-sequence: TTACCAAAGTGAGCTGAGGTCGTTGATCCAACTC
reported-value: 0.117
//
item-sequence: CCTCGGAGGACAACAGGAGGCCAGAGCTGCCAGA
reported-value: 0.553

Which measured PBM binding z-score value corresponds to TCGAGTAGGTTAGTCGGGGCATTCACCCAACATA ? 0.0959

Which measured PBM binding z-score value corresponds to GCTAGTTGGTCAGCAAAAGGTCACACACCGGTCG ? 5.94

Which measured PBM binding z-score value corresponds to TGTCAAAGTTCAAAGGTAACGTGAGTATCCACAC ? 6.45

Which measured PBM binding z-score value corresponds to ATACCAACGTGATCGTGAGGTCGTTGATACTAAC ? 0.317

Which measured PBM binding z-score value corresponds to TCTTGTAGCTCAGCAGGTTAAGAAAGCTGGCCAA ? -0.557

Which measured PBM binding z-score value corresponds to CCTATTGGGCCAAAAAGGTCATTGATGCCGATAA ? 4.44

Which measured PBM binding z-score value corresponds to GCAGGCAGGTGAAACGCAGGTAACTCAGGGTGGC ? 0.946

Which measured PBM binding z-score value corresponds to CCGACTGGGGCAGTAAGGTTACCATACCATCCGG ? 0.667

Which measured PBM binding z-score value corresponds to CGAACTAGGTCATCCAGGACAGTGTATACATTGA ? 3.92

Which measured PBM binding z-score value corresponds to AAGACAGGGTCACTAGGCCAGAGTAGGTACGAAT ? 4.97
